Measured values drawn from patent US20240391954A1 for this set.

Consider the following compounds and their measured MC4R selectivity vs MC1R readings.
- Assay target: human MC4R (Homo sapiens, UniProt P32245)
- Construct: host or cells: HEK-293 cells stably expressing the GScAMP22F split-luciferase cAMP sensor and hMC4R, G418 selection
- Sequence (P32245 whole entry): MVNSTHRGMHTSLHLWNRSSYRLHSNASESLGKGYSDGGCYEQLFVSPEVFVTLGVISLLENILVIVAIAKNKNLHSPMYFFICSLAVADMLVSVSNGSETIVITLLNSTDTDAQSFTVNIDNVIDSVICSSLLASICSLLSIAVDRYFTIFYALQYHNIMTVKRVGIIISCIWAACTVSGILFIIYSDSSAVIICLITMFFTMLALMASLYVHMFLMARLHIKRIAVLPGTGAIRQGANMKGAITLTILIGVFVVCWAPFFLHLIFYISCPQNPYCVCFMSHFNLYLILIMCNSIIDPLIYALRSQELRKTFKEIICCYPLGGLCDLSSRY
- Measurement description: split-luciferase cAMP sensor assay, agonist mode (measurement window 1), hMC4R
- Assay type: cell-based
Positions of bridges follow the written chain, without caps; N, C: chain ends. Non-standard residues stand in square brackets, D forms with d. Residues, ends and D or L forms follow the SMILES beside them. dPhe(4-tBu) = CC(C)(C)c1ccc(C[C@@H](N)C(=O)O)cc1; dPhe(4-Br) = N[C@H](Cc1ccc(Br)cc1)C(=O)O; dPhe(4-I) = N[C@H](Cc1ccc(I)cc1)C(=O)O; dTic = O=C(O)[C@H]1Cc2ccccc2CN1; Cit = NC(=O)NCCC[C@H](N)C(=O)O; Nle = CCCC[C@H](N)C(=O)O; Aib = CC(C)(N)C(=O)O

// below: answered compounds
[
  {
    "Compound": "CC(=O)N[C@@H](CCCNC(=N)N)C(=O)N[C@H]1CSSC[C@@H](C(N)=O)NC(=O)[C@@H](Cc2c[nH]c3ccccc23)NC(=O)[C@H](CCCNC(=N)N)NC(=O)[C@@H](Cc2ccc(O)cc2)NC(=O)[C@H](CCCNC(=N)N)NC(=O)[C@@H](C)NC1=O [CTX-1237] (Ac-RC[dA]R[dY]R[dW]C-NH2; disulfide 2-8 (inferred))",
    "MC4R selectivity vs MC1R": 0.24
  },
  {
    "Compound": "COc1ccc(C[C@H]2NC(=O)[C@H](CCCNC(N)=O)NC(=O)C(C)(C)NC(=O)[C@@H](NC(=O)[C@H](CCCNC(=N)N)NC(C)=O)CSSC[C@@H](C(N)=O)NC(=O)[C@@H](Cc3c[nH]c4ccccc34)NC(=O)[C@H](CCCNC(=N)N)NC2=O)cc1 [CTX-1600] (Ac-RC[Aib][Cit][dY](Me)R[dW]C-NH2; disulfide 2-8)",
    "MC4R selectivity vs MC1R": ">70"
  },
  {
    "Compound": "CC(=O)N[C@@H](CCCNC(=N)N)C(=O)N[C@H]1CSSC[C@@H](C(N)=O)NC(=O)[C@@H](Cc2c[nH]c3ccccc23)NC(=O)[C@H](CCCNC(=N)N)NC(=O)[C@@H](Cc2c[nH]c3ccccc23)NC(=O)[C@H](CCCNC(=N)N)NC(=O)[C@@H](C)NC1=O [CTX-1275] (Ac-RC[dA]R[dW]R[dW]C-NH2; disulfide 2-8 (inferred))",
    "MC4R selectivity vs MC1R": 0.22
  },
  {
    "Compound": "CCCC[C@H](NC(=O)[C@H](CCCNC(=N)N)NC(C)=O)C(=O)N[C@H]1CSSC[C@@H](C(N)=O)NC(=O)[C@@H](Cc2c[nH]c3ccccc23)NC(=O)[C@H](CCCNC(=N)N)NC(=O)[C@@H](Cc2ccc(I)cc2)NC(=O)[C@H](Cc2c[nH]cn2)NC1=O [CTX-1233] (Ac-R[Nle]CH[dPhe(4-I)]R[dW]C-NH2; disulfide 3-8 (inferred))",
    "MC4R selectivity vs MC1R": 0.26
  },
  {
    "Compound": "CC(=O)N[C@@H](CCCNC(=N)N)C(=O)N[C@H]1CSSC[C@@H](C(N)=O)NC(=O)[C@@H](Cc2c[nH]c3ccccc23)NC(=O)[C@H](CCCNC(=N)N)NC(=O)[C@@H](Cc2ccc(C(C)(C)C)cc2)NC(=O)[C@H](CCCNC(=N)N)NC(=O)[C@@H](C)NC1=O [CTX-1242] (Ac-RC[dA]R[dPhe(4-tBu)]R[dW]C-NH2; disulfide 2-8 (inferred))",
    "MC4R selectivity vs MC1R": 0.64
  }
]

Problem: GET MC4R selectivity vs MC1R where system = human MC4R (Homo sapiens, UniProt P32245) and item = CCCC[C@H](NC(=O)[C@H](CCCNC(=N)N)NC(C)=O)C(=O)N[C@H]1CSSC[C@@H](C(N)=O)NC(=O)[C@@H](Cc2c[nH]c3ccccc23)NC(=O)[C@H](CCCNC(=N)N)NC(=O)[C@@H](Cc2ccc(Br)cc2)NC(=O)[C@H](CCCNC(=N)N)NC1=O [CTX-1232] (Ac-R[Nle]CR[dPhe(4-Br)]R[dW]C-NH2; disulfide 3-8 (inferred))
Result: 0.39

Problem: GET MC4R selectivity vs MC1R where system = human MC4R (Homo sapiens, UniProt P32245) and item = CCCC[C@H](NC(=O)[C@H](CCCNC(=N)N)NC(C)=O)C(=O)N[C@H]1CSSC[C@@H](C(N)=O)NC(=O)[C@H](Cc2c[nH]c3ccccc23)NC(=O)[C@H](CCCNC(=N)N)NC(=O)[C@@H](Cc2ccc(Br)cc2)NC(=O)[C@H](CCCNC(=N)N)NC1=O [CTX-1612] (Ac-R[Nle]CR[dPhe(4-Br)]RWC-NH2; disulfide 3-8 (inferred))
Result: 0.09

Problem: GET MC4R selectivity vs MC1R where system = human MC4R (Homo sapiens, UniProt P32245) and item = COc1ccc(C[C@H]2NC(=O)[C@H](CCCNC(=N)N)NC(=O)[C@@H](C)NC(=O)[C@@H](NC(=O)[C@H](CCCNC(=N)N)NC(C)=O)CSSC[C@@H](C(N)=O)NC(=O)[C@@H](Cc3c[nH]c4ccccc34)NC(=O)[C@H](CCCNC(=N)N)NC2=O)cc1 [CTX-1238] (Ac-RC[dA]R[dY](Me)R[dW]C-NH2; disulfide 2-8 (inferred))
Result: 0.44

Problem: GET MC4R selectivity vs MC1R where system = human MC4R (Homo sapiens, UniProt P32245) and item = CC(=O)N[C@@H](CCCNC(=N)N)C(=O)N[C@H]1CSSC[C@@H](C(N)=O)NC(=O)[C@H](Cc2c[nH]c3ccccc23)NC(=O)[C@@H](CCCNC(=N)N)NC(=O)[C@@H](Cc2ccccc2)NC(=O)[C@H](CCCNC(=N)N)NC(=O)[C@@H](C)NC1=O [CTX-1282] (Ac-RC[dA]R[dF][dR]WC-NH2; disulfide 2-8 (inferred))
Result: 0.14

Problem: GET MC4R selectivity vs MC1R where system = human MC4R (Homo sapiens, UniProt P32245) and item = CC(=O)N[C@@H](CCCNC(=N)N)C(=O)N[C@H]1CSSC[C@@H](C(N)=O)NC(=O)[C@@H](Cc2c[nH]c3ccccc23)NC(=O)[C@H](CCCNC(=N)N)NC(=O)[C@H]2Cc3ccccc3CN2C(=O)[C@H](CCCNC(=N)N)NC(=O)[C@@H](C)NC1=O [CTX-1273] (Ac-RC[dA]R[dTic]R[dW]C-NH2; disulfide 2-8)
Result: 0.05

Problem: GET MC4R selectivity vs MC1R where system = human MC4R (Homo sapiens, UniProt P32245) and item = CC(=O)N[C@@H](CCCNC(=N)N)C(=O)N[C@H]1CSSC[C@@H](C(N)=O)NC(=O)[C@H](Cc2c[nH]c3ccccc23)NC(=O)[C@H](CCCNC(=N)N)NC(=O)[C@@H](Cc2ccc(Br)cc2)NC(=O)[C@H](CCCNC(=N)N)NC(=O)[C@@H](C)NC1=O [CTX-2205] (Ac-RC[dA]R[dPhe(4-Br)]RWC-NH2; disulfide 2-8)
Result: 0.2

Problem: GET MC4R selectivity vs MC1R where system = human MC4R (Homo sapiens, UniProt P32245) and item = CC(=O)N[C@@H](CCCNC(=N)N)C(=O)N[C@H]1CSSC[C@@H](C(N)=O)NC(=O)[C@@H](Cc2c[nH]c3ccccc23)NC(=O)[C@H](CCCNC(=N)N)NC(=O)[C@@H](Cc2ccc(Br)cc2)NC(=O)[C@@H](CCCNC(=N)N)NC(=O)[C@@H](C)NC1=O [CTX-1250] (Ac-RC[dA][dR][dPhe(4-Br)]R[dW]C-NH2; disulfide 2-8 (inferred))
Result: 1.06
